Biological target: CETP (Homo sapiens, UniProt P11597)
Sequence (P11597 18-493): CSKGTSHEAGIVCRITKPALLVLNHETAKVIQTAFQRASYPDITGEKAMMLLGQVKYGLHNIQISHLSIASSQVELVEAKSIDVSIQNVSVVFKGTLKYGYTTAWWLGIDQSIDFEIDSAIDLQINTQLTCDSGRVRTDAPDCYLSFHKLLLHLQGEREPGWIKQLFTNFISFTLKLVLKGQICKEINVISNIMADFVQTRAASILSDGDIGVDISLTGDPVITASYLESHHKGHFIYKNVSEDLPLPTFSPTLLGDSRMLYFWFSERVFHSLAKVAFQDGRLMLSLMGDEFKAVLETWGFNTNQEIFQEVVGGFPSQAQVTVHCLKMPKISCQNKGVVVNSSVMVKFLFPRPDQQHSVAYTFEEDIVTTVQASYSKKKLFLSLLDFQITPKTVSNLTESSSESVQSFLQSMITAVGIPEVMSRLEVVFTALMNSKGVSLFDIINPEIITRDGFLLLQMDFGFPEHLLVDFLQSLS
Assay: Ex vivo CETP activity inhibitory effect of plasma from transgenic mice
Parameters: from tissue; host or cells: plasma of transgenic mice carrying the human CETP gene
Conditions: mouse, po; 10 mg/kg, p.o.; 6 hours after administration; transgenic mice with human CETP gene; read-out: CETP activity inhibitory rate in plasma from transgenic mouse
Method: Potassium bromide (KBr) was added to the plasma of healthy subjects (40 ml) to adjust specific gravity to d=1.125 g/ml. Density gradient centrifugation (227,000×g, 4° C., 17 hours) was conducted to obtain a fraction with specific gravity d>1.125 g/ml (HDL3 fraction). The fraction thus obtained was dialyzed against a PBS solution [10 mM Na2HPO4/10 mM NaH2PO4/0.15 M NaCl/1 mM EDTA (pH 7.4)]. […]
measuredProperty: inhibition at 10 mg/kg (%)

entrySmiles	unit	testValue
CC(C)CCC1(C(=O)Nc2ccccc2SC(=O)C(C)(C)C)CCCCC1	%	23

(A) CC(C)CCC1(C(=O)Nc2ccccc2SC(=O)C(C)C)CCCCC1
(B) CC(C)CCC1(C(=O)Nc2ccccc2SC(=O)C2CC2)CCCCC1
q: Sort A and B by inhibition at 10 mg/kg descending and give the first. Answer with the label corresponding to your selection.
a: B

Data provenance: patent US9000045B2
